Data credit: ChEMBL document CHEMBL1154465

- Tested on: L1210
- Assay procedure: Cytotoxicity against mouse L1210 cells after 48 hrs by microculture tetrazolium assay
- Assay type: functional, cell-based
- Cond: L1210, 48 h
Result type: IC50 (µM)
Answers are plain numbers, in µM.

Study these solved cases before continuing.
So what's the measured IC50 for this one? COc1ccc2c(=O)c3ccccc3n(C)c2c1CO
13.9

Same read-out for COc1ccc2c(=O)c3cc4ccccc4cc3n(C)c2c1COC(C)=O ?
18.5

Query COc1ccc2c(=O)c3cc4ccccc4cc3n(C)c2c1CO next
34.6

Could you do the same for COCc1c(OC)cc(OC)c2c(=O)c3ccccc3n(C)c12 , please?
51.7

Same for COc1cc(OC)c2c(=O)c3ccccc3n(C)c2c1COC(C)=O
39.9

Record IC50 per entry; entries follow.
1. COc1cc(OC(C)(C)COC(C)=O)c(COC(C)=O)c2c1c(=O)c1cc3ccccc3cc1n2C
2. COc1cc(OC(C)(C)CO)c(CO)c2c1c(=O)c1cc3ccccc3cc1n2C
3. COc1ccc2c(=O)c3ccccc3n(C)c2c1COC(C)=O
4. COc1cc(OC)c2c(=O)c3ccccc3n(C)c2c1CO

3
1.3
24
23.9
